Target: HIV-1 NC WT (HIV-1 (NL4-3 isolate), UniProt P12493 378-432)
Assay: fluorescence anisotropy; 1 uM zinc acetate; FA: 20 mM HEPES pH 7.5, 50 mM NaCl, 10 uM TCEP, 5 mM beta-mercaptoethanol, 1 uM zinc acetate, 20 C, 30 min; 20 nM micro-TAR RNA or 10 nM (TG)4 DNA (Table 1 footnote: room temperature)
Settings: protein: recombinant; label: 5' carboxyfluorescein (FAM); single strand
Measurement Type: pKd
pKd here is simply -log10 of the concentration when that concentration is written in mol/L.

Q. Fill blank: measured pKd of the binder TGTGTGTG (ssDNA) [(TG)4 DNA] is ____.
A. 8.30
